target: … (SEQ ID NO: 1)-HLA-A*02 complex (soluble, biotinylated) (human); assay: SPR (BIAcore) or BLI (Octet) per Example 3, biotinylated pHLA immobilised, 25 C
Each item that follows carries a reported pKd.
pKd is defined as minus the log10 of a concentration measured in mol/L.

// known answers, use as guide
[[record]]
binder = "ImmTAC molecule comprising a28 (SEQ ID NO: 6) and b60 (SEQ ID NO: 19) (TCR, part only; not given: anti-CD3 scFv, linker, TCR constants, part only) TCR alpha, part: GDAKTTQPNSMESNEEEPVHLPCNHSTISGTDYIHWYRQLPSQGPEYVIHGLTSNVNNRMASLAIAEDRKSSTLILHRATLRDAAVYYCILILGHSRAGNYIATFGKGTKLSVIP TCR beta, part: DGGITQSPKYLFRKEGQNVTLSCEQNLNHDAMYWYRQDPGQGLRLIYYSQIMGDEQKGDIAEGYSVSREKKESFPLTVTSAQKNPTAFYLCASSWWTGGASEISFGPGTRLTVT"
reported_metric = "pKd"
value = 9.58

[[record]]
binder = "ImmTAC molecule comprising a79 (SEQ ID NO: 7) and b66 (SEQ ID NO: 23) (TCR, part only; not given: anti-CD3 scFv, linker, TCR constants, part only) TCR alpha, part: GDAKTTQPNSMESNEEEPVHLPCNHSTISGTDYIHWYRQLPSQGPEYVIHGLTSNVNNRMASLAIAEDRKSSTLILHRATLRDAAVYYCILILGHSRLGNYIATFGKGTKLSVIP TCR beta, part: DGGITQSPKYLFRKEGQNVTLSCEQNLNHDAMYWYRQDPGQGLRLIYYSQIMGDEQKGDIAEGYSVSREKKESFPLTVTSAQKNPTAFYLCASSPWTGGSAPIRFGPGTRLTVT"
reported_metric = "pKd"
value = 10.05

[[record]]
binder = "ImmTAC molecule comprising a79 (SEQ ID NO: 7) and b77 (SEQ ID NO: 18) (TCR, part only; not given: anti-CD3 scFv, linker, TCR constants, part only) TCR alpha, part: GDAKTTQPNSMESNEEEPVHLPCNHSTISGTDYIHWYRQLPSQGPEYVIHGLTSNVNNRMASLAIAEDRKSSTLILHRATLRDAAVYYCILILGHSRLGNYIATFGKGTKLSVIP TCR beta, part: DGGITQSPKYLFRKEGQNVTLSCEQNLNHDAMYWYRQDPGQGLRLIYYSQIMGDEQKGDIAEGYSVSREKKESFPLTVTSAQKNPTAFYLCASSWWTGGAAPIRFGPGTRLTVT"
reported_metric = "pKd"
value = 10.11

[[record]]
binder = "ImmTAC molecule comprising a28 (SEQ ID NO: 6) and b57 (SEQ ID NO: 10) (TCR, part only; not given: anti-CD3 scFv, linker, TCR constants, part only) TCR alpha, part: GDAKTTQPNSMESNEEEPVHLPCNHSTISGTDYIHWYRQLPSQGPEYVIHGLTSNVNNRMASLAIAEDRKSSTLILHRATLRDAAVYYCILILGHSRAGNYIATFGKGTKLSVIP TCR beta, part: DGGITQSPKYLFRKEGQNVTLSCEQNLNHDAMYWYRQDPGQGLRLIYYSQIMGDEQKGDIAEGYSVSREKKESFPLTVTSAQKNPTAFYLCASSWWTSGASPISFGPGTRLTVT"
reported_metric = "pKd"
value = 10.08


Let's switch to this binder now.
Query :: Fill blank: measured pKd of the binder ImmTAC molecule comprising a28 (SEQ ID NO: 6) and b75 (SEQ ID NO: 20) (TCR, part only; not given: anti-CD3 scFv, linker, TCR constants, part only) TCR alpha, part: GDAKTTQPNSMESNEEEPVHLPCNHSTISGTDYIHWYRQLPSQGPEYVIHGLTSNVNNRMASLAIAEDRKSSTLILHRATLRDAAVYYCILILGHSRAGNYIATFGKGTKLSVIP TCR beta, part: DGGITQSPKYLFRKEGQNVTLSCEQNLNHDAMYWYRQDPGQGLRLIYYSQIMGDEQKGDIAEGYSVSREKKESFPLTVTSAQKNPTAFYLCASSWWTGGSAPISFGPGTRLTVT is ____.
Result :: 9.67
